# Tested on: rat FCA 96 hr paw model of inflammatory pain (mechanical hyperalgesia)
# measurement_protocol: Mechanical hyperalgesia (Ugo Basile analgesy meter) in rat FCA 96 hr paw model of inflammatory pain
# Type: in vivo
# conditions_used: oral dosing 0.3-1-3-10-20 μmol/kg, 96 h after FCA, free plasma concentration, read-out: potency (EC50 free plasma concentration) in reversing mechanical hyperalgesia
experimental_readout: EC50 (nM)
Give your result in nM as a bare value.

Recorded EC50 of CNC(=O)c1cc(F)c(-c2nc3cc(C)ccn3c2C[C@H]2CN(C(=O)OC)CCO2)c(F)c1 [Example 15] , please.
87
